# target entity: UniProt P35968
# Sequence (P35968 20-1356): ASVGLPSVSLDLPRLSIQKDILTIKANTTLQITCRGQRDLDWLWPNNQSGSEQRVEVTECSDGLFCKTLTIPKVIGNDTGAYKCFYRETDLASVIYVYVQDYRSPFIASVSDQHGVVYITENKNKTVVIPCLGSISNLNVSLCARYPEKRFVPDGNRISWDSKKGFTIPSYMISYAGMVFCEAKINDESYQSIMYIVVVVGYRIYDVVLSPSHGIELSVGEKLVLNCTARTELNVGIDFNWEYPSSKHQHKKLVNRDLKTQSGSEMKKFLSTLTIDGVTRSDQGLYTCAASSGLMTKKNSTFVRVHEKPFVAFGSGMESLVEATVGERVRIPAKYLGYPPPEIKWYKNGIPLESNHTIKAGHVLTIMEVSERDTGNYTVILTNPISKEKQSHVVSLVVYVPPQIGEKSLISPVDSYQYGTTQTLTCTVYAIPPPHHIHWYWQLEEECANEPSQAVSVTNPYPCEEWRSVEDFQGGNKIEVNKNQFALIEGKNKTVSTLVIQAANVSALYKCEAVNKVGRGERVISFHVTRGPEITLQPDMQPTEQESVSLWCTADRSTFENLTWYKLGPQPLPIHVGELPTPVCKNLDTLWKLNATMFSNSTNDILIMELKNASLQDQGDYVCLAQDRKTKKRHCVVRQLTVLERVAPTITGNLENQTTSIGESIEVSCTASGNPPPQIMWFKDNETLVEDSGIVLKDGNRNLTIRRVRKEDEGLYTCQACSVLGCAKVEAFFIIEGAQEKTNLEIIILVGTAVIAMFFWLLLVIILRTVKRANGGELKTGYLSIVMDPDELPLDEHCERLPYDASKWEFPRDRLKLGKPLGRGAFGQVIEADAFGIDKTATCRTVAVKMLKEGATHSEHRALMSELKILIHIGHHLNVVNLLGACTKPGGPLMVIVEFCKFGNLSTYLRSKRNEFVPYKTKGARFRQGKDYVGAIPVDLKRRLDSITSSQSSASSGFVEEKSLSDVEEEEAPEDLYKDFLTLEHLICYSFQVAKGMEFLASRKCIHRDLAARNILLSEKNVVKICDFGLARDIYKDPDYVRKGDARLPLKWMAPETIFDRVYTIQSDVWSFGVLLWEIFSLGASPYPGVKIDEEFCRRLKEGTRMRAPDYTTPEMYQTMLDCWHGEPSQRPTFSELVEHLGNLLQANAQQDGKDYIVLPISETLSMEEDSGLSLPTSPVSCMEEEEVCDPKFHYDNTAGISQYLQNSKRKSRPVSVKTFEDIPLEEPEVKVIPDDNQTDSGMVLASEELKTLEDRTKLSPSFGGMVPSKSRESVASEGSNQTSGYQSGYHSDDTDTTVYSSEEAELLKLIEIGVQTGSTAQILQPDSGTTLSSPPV
pIC50: −log10 of the molar value.
experimental readout: pIC50

// compound `CCN(CC)CCOc1ccc(Nc2cc3c(cn2)cc(-c2ccccc2)c(=O)n3CC)nc1` , assay UniProt P35968, pIC50 value: 6.30 to 7.00

---

# target entity: PI3 Kinase (p110β/p85α)(h) (Homo sapiens (Human))
# Sequence (P42338 whole entry): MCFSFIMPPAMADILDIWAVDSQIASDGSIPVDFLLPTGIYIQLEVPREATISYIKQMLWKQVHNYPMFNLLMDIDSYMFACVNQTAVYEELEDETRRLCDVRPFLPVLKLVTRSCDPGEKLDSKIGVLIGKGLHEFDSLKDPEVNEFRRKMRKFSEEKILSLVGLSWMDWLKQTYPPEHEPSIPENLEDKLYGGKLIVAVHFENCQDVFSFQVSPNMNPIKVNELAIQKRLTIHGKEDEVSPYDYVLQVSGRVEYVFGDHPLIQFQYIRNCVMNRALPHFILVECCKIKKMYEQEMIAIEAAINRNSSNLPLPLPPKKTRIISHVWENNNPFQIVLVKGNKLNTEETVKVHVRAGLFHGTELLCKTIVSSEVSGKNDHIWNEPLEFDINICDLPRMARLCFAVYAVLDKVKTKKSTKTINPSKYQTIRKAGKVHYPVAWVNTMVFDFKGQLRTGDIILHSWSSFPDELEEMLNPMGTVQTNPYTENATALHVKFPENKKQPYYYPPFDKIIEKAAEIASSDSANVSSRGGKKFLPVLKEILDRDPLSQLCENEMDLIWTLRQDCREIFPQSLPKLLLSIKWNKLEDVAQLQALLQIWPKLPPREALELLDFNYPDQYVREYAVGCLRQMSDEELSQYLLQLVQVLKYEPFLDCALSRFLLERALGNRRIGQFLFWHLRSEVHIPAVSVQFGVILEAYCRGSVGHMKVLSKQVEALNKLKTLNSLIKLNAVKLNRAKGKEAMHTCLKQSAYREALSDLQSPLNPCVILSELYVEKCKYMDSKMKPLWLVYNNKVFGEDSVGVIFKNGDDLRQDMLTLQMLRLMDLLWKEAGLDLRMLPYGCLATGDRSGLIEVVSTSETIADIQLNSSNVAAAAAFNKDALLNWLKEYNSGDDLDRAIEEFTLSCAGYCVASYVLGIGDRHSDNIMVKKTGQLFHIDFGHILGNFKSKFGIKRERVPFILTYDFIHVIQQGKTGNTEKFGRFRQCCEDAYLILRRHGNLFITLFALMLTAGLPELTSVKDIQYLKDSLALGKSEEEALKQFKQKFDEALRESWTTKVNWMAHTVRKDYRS
# Sequence (P27986 whole entry partner): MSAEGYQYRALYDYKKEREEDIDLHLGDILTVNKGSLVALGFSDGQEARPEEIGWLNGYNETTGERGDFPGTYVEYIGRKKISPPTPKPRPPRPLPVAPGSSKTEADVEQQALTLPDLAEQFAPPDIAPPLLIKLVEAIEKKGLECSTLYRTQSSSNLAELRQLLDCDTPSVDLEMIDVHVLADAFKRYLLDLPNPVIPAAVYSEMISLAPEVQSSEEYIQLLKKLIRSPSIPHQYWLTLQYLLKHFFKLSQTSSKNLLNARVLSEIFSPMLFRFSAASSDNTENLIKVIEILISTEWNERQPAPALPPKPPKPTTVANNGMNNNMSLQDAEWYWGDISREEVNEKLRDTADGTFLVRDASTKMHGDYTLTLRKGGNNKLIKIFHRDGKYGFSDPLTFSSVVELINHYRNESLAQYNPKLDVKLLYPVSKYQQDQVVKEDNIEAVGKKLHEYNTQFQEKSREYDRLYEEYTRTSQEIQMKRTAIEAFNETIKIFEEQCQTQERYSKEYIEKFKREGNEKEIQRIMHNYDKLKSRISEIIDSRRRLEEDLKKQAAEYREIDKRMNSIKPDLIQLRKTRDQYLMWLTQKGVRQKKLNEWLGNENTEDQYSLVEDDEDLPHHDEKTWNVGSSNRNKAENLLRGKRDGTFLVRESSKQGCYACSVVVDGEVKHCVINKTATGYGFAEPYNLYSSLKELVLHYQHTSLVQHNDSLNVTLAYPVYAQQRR
# procedure text: IC50 profiler radiometric kinase assay (Millipore)
# measurement setup: Lipid/Atypical
List of IC50 values.

CCn1c(=O)c(-c2ccccc2)cc2cnc(Nc3ncc(CCN(C)C)s3)cc21 [Compound 2]; > 1000 nM

Consider now this further compound.
// sample CCN(CC)CCOc1ccc(Nc2cc3c(cn2)cc(-c2ccccc2)c(=O)n3CC)nc1 [Compound 1] , its IC50 was > 1000 nM
